Test system: TT (Thyroid Gland Carcinoma)
Experiment: combination Emax (second highest fraction inhibited in the dose matrix, 72 h); higher = more inhibition; extreme values may be limits of the assay
combination Emax: recorded values
Give the figure by itself; no unit, no explanation.

compound	test system	combination Emax
Cc1c2c(nn1C)CSCc1cc(n(C)n1)CSc1cc(c3ccccc3c1)OCCCc1c(C(=O)O)n(C)c3c-2c(Cl)ccc13 [AZD5991] + Cn1cnc2c(F)c(Nc3ccc(Br)cc3Cl)c(C(=O)NOCCO)cc21 [Selumetinib] (first compound max 1 µM, 7x7, partner max 3 µM)	TT (Thyroid Gland Carcinoma)	0.339
CN(CCO)CC[C@H](CSc1ccccc1)Nc1ccc(S(=O)(=O)NC(=O)c2ccc(N3CCC([C@@H](O)c4ccccc4-c4ccc(Cl)cc4)CC3)cc2)cc1S(=O)(=O)C(F)(F)F [AZD4320] + CN(C)CCCOc1ccc(-c2ccc3ncc4c(c3c2)n(C2CCOCC2)c(=O)n4C)cn1 [AZD0156] (first compound max 1 µM, 7x7, partner max 1 µM)	TT (Thyroid Gland Carcinoma)	0.269
Cc1nc(Nc2ncc(C(=O)Nc3c(C)cccc3Cl)s2)cc(N2CCN(CCO)CC2)n1 [Dasatinib] + CC(=O)Nc1cccc(-n2c(=O)n(C3CC3)c(=O)c3c(Nc4ccc(I)cc4F)n(C)c(=O)c(C)c32)c1 [Trametinib] (first compound max 2 µM, 7x7, partner max 1 µM)	TT (Thyroid Gland Carcinoma)	0.441
NC1(C(=O)N[C@@H](CCO)c2ccc(Cl)cc2)CCN(c2ncnc3[nH]ccc23)CC1 [Capivasertib] + CC(=O)c1c(C)c2cnc(Nc3ccc(N4CCNCC4)cn3)nc2n(C2CCCC2)c1=O [Palbociclib] (first compound max 10 µM, 7x7, partner max 10 µM)	TT (Thyroid Gland Carcinoma)	0.447
NC1(C(=O)N[C@@H](CCO)c2ccc(Cl)cc2)CCN(c2ncnc3[nH]ccc23)CC1 [Capivasertib] + CC(C)n1c(=O)n(C)c2cnc3cc(F)c(-c4ccc(OCCCN5CCCCC5)nc4)cc3c21 [AZD1390] (first compound max 10 µM, 7x7, partner max 0.3 µM)	TT (Thyroid Gland Carcinoma)	0.425

Lookup: Which combination Emax value is on record for CS(=O)(=O)CCNCc1ccc(-c2ccc3ncnc(Nc4ccc(OCc5cccc(F)c5)c(Cl)c4)c3c2)o1 [Lapatinib] + Cn1cnc2c(F)c(Nc3ccc(Br)cc3Cl)c(C(=O)NOCCO)cc21 [Selumetinib] (first compound max 10 µM, 7x7, partner max 10 µM) ?
Found: 0.305

----------
System: PA-1 (Ovarian Carcinoma);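 also: after 72 h of two-drug dosing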
Assay: Bliss excess, mean over the matrix (fraction); higher = more synergy
Bliss excess: recorded values
Give the figure by itself; no unit, no explanation.

Solved entries:
molecule	Bliss excess
CC1(C)CCC(CN2CCN(c3ccc(C(=O)NS(=O)(=O)c4ccc(NCC5CCOCC5)c([N+](=O)[O-])c4)c(Oc4cnc5[nH]ccc5c4)c3)CC2)=C(c2ccc(Cl)cc2)C1 [Venetoclax] + COc1cc(Nc2ncc3c(n2)-c2ccc(Cl)cc2C(c2c(F)cccc2OC)=NC3)ccc1C(=O)O [Alisertib] (first compound max 1 µM, 7x7, partner max 10 µM)	0.0385
CC(=O)c1c(C)c2cnc(Nc3ccc(N4CCNCC4)cn3)nc2n(C2CCCC2)c1=O [Palbociclib] + Cc1c2c(nn1C)CSCc1cc(n(C)n1)CSc1cc(c3ccccc3c1)OCCCc1c(C(=O)O)n(C)c3c-2c(Cl)ccc13 [AZD5991] (first compound max 10 µM, 7x7, partner max 1 µM)	0.0052
C[C@@H](c1ccc2nccn2c1)n1nnc2ncc(-c3cnn(C)c3)nc21 [Savolitinib] + CC1(C)CCC(CN2CCN(c3ccc(C(=O)NS(=O)(=O)c4ccc(NCC5CCOCC5)c([N+](=O)[O-])c4)c(Oc4cnc5[nH]ccc5c4)c3)CC2)=C(c2ccc(Cl)cc2)C1 [Venetoclax] (first compound max 1 µM, 7x7, partner max 1 µM)	-0.0163

Lookup: Query for PA-1 (Ovarian Carcinoma): what Bliss excess does the record show for COc1nnc2ccc(N3CCC(c4ccc(OCCN5CCN(C)C(=O)[C@H]5C)cc4)CC3)nn12 [AZD5153] + Cc1c2c(nn1C)CSCc1cc(n(C)n1)CSc1cc(c3ccccc3c1)OCCCc1c(C(=O)O)n(C)c3c-2c(Cl)ccc13 [AZD5991] (first compound max 1 µM, 7x7, partner max 1 µM) ?
Found: 0.0109

Lookup: Query for PA-1 (Ovarian Carcinoma): what Bliss excess does the record show for CN(C)CCCOc1ccc(-c2ccc3ncc4c(c3c2)n(C2CCOCC2)c(=O)n4C)cn1 [AZD0156] + C=CCn1c(=O)c2cnc(Nc3ccc(N4CCN(C)CC4)cc3)nc2n1-c1cccc(C(C)(C)O)n1 [AZD1775] (first compound max 1 µM, partner max 1 µM) ?
Found: -0.0546

Lookup: Query for PA-1 (Ovarian Carcinoma): what Bliss excess does the record show for NC1(C(=O)N[C@@H](CCO)c2ccc(Cl)cc2)CCN(c2ncnc3[nH]ccc23)CC1 [Capivasertib] + CCN(CCO)CCCOc1ccc2c(Nc3cc(CC(=O)Nc4cccc(F)c4)[nH]n3)ncnc2c1 [AZD2811] (first compound max 10 µM, 7x7, partner max 1 µM) ?
Found: 0.0219

Lookup: Query for PA-1 (Ovarian Carcinoma): what Bliss excess does the record show for CC(=O)Nc1cccc(-n2c(=O)n(C3CC3)c(=O)c3c(Nc4ccc(I)cc4F)n(C)c(=O)c(C)c32)c1 [Trametinib] + Cc1nc(-c2cn3c(n2)-c2ccc(-c4cnn(C(C)(C)C(N)=O)c4)cc2OCC3)n(C(C)C)n1 [Taselisib] (first compound max 1 µM, 7x7, partner max 10 µM) ?
Found: 0.05
